targetOrTestSystem: T1, recombinant human TROP2 protein (human, UniProt P09758 27-274)
T1 chain: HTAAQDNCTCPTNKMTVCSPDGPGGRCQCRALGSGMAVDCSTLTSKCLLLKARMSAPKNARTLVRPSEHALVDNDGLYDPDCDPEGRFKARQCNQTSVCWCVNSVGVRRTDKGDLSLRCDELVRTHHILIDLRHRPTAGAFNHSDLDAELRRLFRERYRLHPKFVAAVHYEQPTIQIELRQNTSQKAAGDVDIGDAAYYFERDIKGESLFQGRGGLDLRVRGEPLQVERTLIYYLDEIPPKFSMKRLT
testName: binding of TROP2 protein to binder-expressing γδ T cells
Assign labels as follows, please: yes for EC50 below 10 nM; no for EC50 equal to or exceeding 10 nM.

1) TROP2 CAR with anti-TROP2 VHH #TP12, on γδ T cells (other) QVQLVESGGGLVQPGGSLRLSCAASRFTLDYYAIGWIRQAPGKEREGVSCISSSGGSTNYADSVKGRFTISRDNAKNTVYLQMNSLKPEDTGVYYCAATTYACSGYVPRAYEYDYWGQGTQVTVSSTTTPAPRPPTPAPTIASQPLSLRPEACRPAAGGAVHTRGLDFACDIYIWAPLAGTCGVLLLSLVITLYCKRGRKKLLYIFKQPFMRPVQTTQEEDGCSCRFPEEEEGGCELRVKFSRSADAPAYQQGQNQLYNELNLGRREEYDVLDKRRGRDPEMGGKPRRKNPQEGLYNELQKDKMAEAYSEIGMKGERRRGKGHDGLYQGLSTATKDTYDALHMQALPPR = no
2) TROP2 CAR with anti-TROP2 VHH #TP2, on γδ T cells (other) EVQLVESGGGLAQPGGSLRLSCAASGFTFSTYAMSWARQAPGKGLEWVSGIYADGSGTYYADSVKGRFTISRDNAKNTLYLQMNSLKPEDTALYYCAQGYSDYDRRLGEYDYWGQGTQVTVSSTTTPAPRPPTPAPTIASQPLSLRPEACRPAAGGAVHTRGLDFACDIYIWAPLAGTCGVLLLSLVITLYCKRGRKKLLYIFKQPFMRPVQTTQEEDGCSCRFPEEEEGGCELRVKFSRSADAPAYQQGQNQLYNELNLGRREEYDVLDKRRGRDPEMGGKPRRKNPQEGLYNELQKDKMAEAYSEIGMKGERRRGKGHDGLYQGLSTATKDTYDALHMQALPPR = yes
3) TROP2 CAR with anti-TROP2 VHH #TP9, on γδ T cells (other) QVQLVESGGGLVQPGGSLRLSCAASGFSLDYWAIAWFRQAPGKEREGVSCSGSRGSTHYADSVKGRFTISRDNAKNTVYLQMNSLKPEDAGVYYCAVGSTLYSLTPYEYDYWGQGTQVTVSSTTTPAPRPPTPAPTIASQPLSLRPEACRPAAGGAVHTRGLDFACDIYIWAPLAGTCGVLLLSLVITLYCKRGRKKLLYIFKQPFMRPVQTTQEEDGCSCRFPEEEEGGCELRVKFSRSADAPAYQQGQNQLYNELNLGRREEYDVLDKRRGRDPEMGGKPRRKNPQEGLYNELQKDKMAEAYSEIGMKGERRRGKGHDGLYQGLSTATKDTYDALHMQALPPR = no
4) TROP2 CAR with anti-TROP2 VHH #TP6, on γδ T cells (other) QLQLVESGGGLVQPGGSLRLSCAASGTLDYWTVGWFRQAPGKEREGVSCISSSDSSTYYADSVKGRFTISRDNAKNTVYLQMNSLKPEDTAVYYCAAGSLGYCSRSTPQYEYDFWGQGTQVTVSSTTTPAPRPPTPAPTIASQPLSLRPEACRPAAGGAVHTRGLDFACDIYIWAPLAGTCGVLLLSLVITLYCKRGRKKLLYIFKQPFMRPVQTTQEEDGCSCRFPEEEEGGCELRVKFSRSADAPAYQQGQNQLYNELNLGRREEYDVLDKRRGRDPEMGGKPRRKNPQEGLYNELQKDKMAEAYSEIGMKGERRRGKGHDGLYQGLSTATKDTYDALHMQALPPR = no
5) TROP2 CAR with anti-TROP2 #PL02 scFv (VL-linker-VH) adopted from monoclonal antibody hRS7, on γδ T cells (other, not shown: small tags and cut ends, CAR on γδ T cells) DIQLTQSPSSLSASVGDRVSITCKASQDVSIAVAWYQQKPGKAPKLLIYSASYRYTGVPDRFSGSGSGTDFTLTISSLQPEDFAVYYCQQHYITPLTFGAGTKVEIKGGGGSGGGGSGGGGSQVQLQQSGSELKKPGASVKVSCKASGYTFTNYGMNWVKQAPGQGLKWMGWINTYTGEPTYTDDFKGRFAFSLDTSVSTAYLQISSLKADDTAVYFCARGGFGSSYWYFDVWGQGSLVTVSS = yes
